Just for reference, the supplement of paper PMC5908809 is where these values come from.

System: NK-YS (IL-2 2.5 ng/mL);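 note: normalised to DMSO-only wells as negative and benzethonium chloride as positive control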
ASSAY_REMARKS: percent inhibition of viability; higher = more inhibition
CONDITION_LABEL: 72 h; 100 nM
Kindly supply the reported percent inhibition of viability values for the records listed here.
Give bare numbers, in %.

Could you tell me percent inhibition of viability for each of these molecules? They are listed below.
1. Cc1cn(-c2cc(NC(=O)c3ccc(C)c(Nc4nccc(-c5cccnc5)n4)c3)cc(C(F)(F)F)c2)cn1 [Nilotinib] (max concentration tested 10000 nM)
2. C/C(=C\c1csc(C)n1)[C@@H]1C[C@@H]2O[C@]2(C)CCC[C@H](C)[C@H](O)[C@@H](C)C(=O)C(C)(C)[C@@H](O)CC(=O)O1 [Patupilone] (max concentration tested 1000 nM)
3. CC[C@@]1(O)C(=O)OCc2c1cc1n(c2=O)Cc2cc3c(CN(C)C)c(O)ccc3nc2-1 [Topotecan] (max concentration tested 10000 nM)

A)
[9.04, 71.3, 91.2]
